- TEST SYSTEM: T1, human BCMA-Fc (human)
- T1 chain: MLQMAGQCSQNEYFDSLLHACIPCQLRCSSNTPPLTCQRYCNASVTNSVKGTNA
- PROTOCOL SUMMARY: SPR, 25C
# pKd listing for each entry below
# pKd is unitless: minus log10 of the molar concentration; print number only

BINDER | READOUT KIND | QUANTITATIVE READOUT
P1AG5062 (E04 parental) (antibody, V domains shown) VH: QVQLQQPGAELVKPGASVKLSCKASGYTFTNYWMHWVKQRPGQGLEWIGIIHPNSGSTNYNEKFKSKATLTVDKSSSTAYMQLSSLTSEDSAVYYCARGIYDYPFAYWGQGTLVTVSS VL: DIVLTQSPASLAVSLGQRATISCRASESVSIHGTHLMHWYQQKPGQPPKLLIYAASNLESGVPARFSGSGSETDFTLNIHPVEEEDAATYFCQQSIEDPYTFGGGTKLEIK | pKd | 8.51

Query binder follows.
I am curious: what pKd value has been reported for P1AG5014 (54_VH1a_Y292D/VL1a_L1_pGL) (antibody, V domains shown) VH: EVQLVESGGGLVKPGGSLRLSCAASGFTFSNAWMDWVRQAPGKGLEWVGQITAKSNNYATDYAAPVKGRFTISRDDSKNTLYLQMNSLKTEDTAVYYCTDDGYHWGQGTLVTVSS VL: AIQMTQSPSSLSASVGDRVTITCRASEDIRNDLGWYQQKPGKAPKLLIYNANSLHTGVPSRFSGSGSGTDFTLTISSLQPEDFATYYCEDTSKYPYTFGQGTKLEIK ?
8.77
